As shown below, each of these compounds has a reported pIC50 value.
- systemName: acyl-CoA: cholesterol acyltransferase (ACAT)
- testDetails: ACAT inhibitory action: cholesteryl-[14C] oleate formation in hamster microsomes
- Type: biochemical
- assayContext: radio-labelled oleoyl coenzyme A (14C)
// returns pIC50 (minus log10 of molar concentration), number only

Solved entries:
compound	pIC50
CCCCC(CNC(=O)Nc1c(C(C)C)cccc1C(C)C)c1cccc(Cl)c1 (stereo not shown) [Example 40]	7.51
CCCCCC(CNC(=O)Nc1c(C(C)C)cccc1C(C)C)c1cccc(C)c1 (stereo not shown) [Example 12]	7.59
CCCCCC(CNC(=O)Nc1c(C(C)C)cccc1C(C)C)c1cccc(OC)c1OC (stereo not shown) [Example 33]	7.80

Data request: Quick one: pIC50 of CCCCC(CNC(=O)Nc1c(C(C)C)cccc1C(C)C)c1ccccc1C (stereo not shown) [Example 9] ?
Data returned: 8.31
